Values from patent US9283222B2

# TARGET DESC: Recombinant Human Poly(ADP-Ribose) Polymerase (PARP), PARP-1 (Homo sapiens (Human))
# RUN PARAMETERS: read-out: PARP-1 (Ki); Table 1; text calls the values EC50s
Entries and their measured pKi follow.
Value format note: pKi is -log10 of concentration (mol/L); just state the number.

The following compounds have reported results that may help.
> print(dat)
                                smiles.code  numeric.readout
1  Cc1cc(F)ccc1NC(=O)c1cccc(Cc2n[nH]c(=O)c3c2CCCC3)c1             6.55
2  CC(C)n1nnc2cc(C(=O)N3CCCN(C(=O)c4cc(Cc5n[nH]c(=O)c6c5NCCC6)ccc4F)CC3)ccc21             8.62
3    COC(=O)c1ccc(Cc2n[nH]c(=O)c3c2CCCC3)s1             6.78
4  O=C(Nc1cccc(Cc2n[nH]c(=O)c3c2CCCC3)c1)c1ccc(O)nc1             8.15
5  O=C(NCCCN1CCCCC1)c1cccc(Cc2n[nH]c(=O)c3c2CCCC3)c1             7.47

Recorded pKi for O=C(NCCc1ccccc1)c1cccc(Cc2n[nH]c(=O)c3c2CCCC3)c1 with Recombinant Human Poly(ADP-Ribose) Polymerase (PARP), PARP-1 (Homo sapiens (Human)), please? 7.29

Reported pKi for Recombinant Human Poly(ADP-Ribose) Polymerase (PARP), PARP-1 (Homo sapiens (Human)), given CN(C)CCC(=O)Nc1cccc(Cc2n[nH]c(=O)c3c2CCCC3)c1 ? 5.81

Query for Recombinant Human Poly(ADP-Ribose) Polymerase (PARP), PARP-1 (Homo sapiens (Human)): what pKi does the record show for COc1ccc(C(=O)N2CCN(C(=O)c3cc(Cc4n[nH]c(=O)c5c4CCCC5)ccc3F)CC2)cc1 ? 8.62

---

# TARGET DESC: Recombinant Human Poly(ADP-Ribose) Polymerase (PARP), PARP-1 (Homo sapiens (Human), UniProt P09874)
# Sequence (P09874 whole entry): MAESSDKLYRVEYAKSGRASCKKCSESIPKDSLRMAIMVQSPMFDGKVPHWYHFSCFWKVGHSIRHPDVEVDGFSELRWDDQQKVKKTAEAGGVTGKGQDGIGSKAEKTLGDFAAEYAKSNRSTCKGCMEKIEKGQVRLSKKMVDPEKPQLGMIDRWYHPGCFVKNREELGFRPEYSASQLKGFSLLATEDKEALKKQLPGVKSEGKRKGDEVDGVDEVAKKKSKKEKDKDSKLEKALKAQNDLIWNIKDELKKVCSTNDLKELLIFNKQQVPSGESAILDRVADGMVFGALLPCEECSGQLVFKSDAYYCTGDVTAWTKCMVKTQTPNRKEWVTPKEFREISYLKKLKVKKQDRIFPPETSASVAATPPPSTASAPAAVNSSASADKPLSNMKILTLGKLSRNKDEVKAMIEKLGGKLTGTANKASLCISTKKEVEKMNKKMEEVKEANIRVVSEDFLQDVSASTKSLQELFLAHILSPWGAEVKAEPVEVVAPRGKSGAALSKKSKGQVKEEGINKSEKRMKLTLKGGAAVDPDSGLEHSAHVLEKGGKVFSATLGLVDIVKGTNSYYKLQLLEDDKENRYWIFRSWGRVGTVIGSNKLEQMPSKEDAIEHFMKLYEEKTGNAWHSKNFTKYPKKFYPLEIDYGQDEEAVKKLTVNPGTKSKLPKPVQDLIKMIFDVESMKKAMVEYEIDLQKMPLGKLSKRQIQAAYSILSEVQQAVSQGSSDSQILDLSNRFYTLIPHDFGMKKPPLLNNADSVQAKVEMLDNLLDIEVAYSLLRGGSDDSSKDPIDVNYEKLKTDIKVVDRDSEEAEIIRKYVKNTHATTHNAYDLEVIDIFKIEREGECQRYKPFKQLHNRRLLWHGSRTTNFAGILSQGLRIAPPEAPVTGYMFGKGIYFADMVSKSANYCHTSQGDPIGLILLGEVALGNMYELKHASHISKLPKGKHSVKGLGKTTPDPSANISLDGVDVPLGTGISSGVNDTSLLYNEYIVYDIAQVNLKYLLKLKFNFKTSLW
# RUN PARAMETERS: read-out: PARP-1 (Ki); Table 1; text calls the values EC50s
READOUT KIND: Ki (nM)
Answer in nM, number only, no unit symbol.

These solved cases illustrate the format of a correct answer.
> print(dat)
                                   molecule  readout.kind  numeric.readout
1  O=C(c1cncnc1)N1CCCN(C(=O)c2cc(Cc3n[nH]c(=O)c4c3NCCC4)ccc2F)CC1            Ki              2.2
2  O=C(Nc1cccc(Cc2n[nH]c(=O)c3c2CCCC3)c1)c1ccc2ccccc2c1O            Ki                4
3  O=C(CCCOc1ccccc1)Nc1cccc(Cc2n[nH]c(=O)c3c2CCCC3)c1            Ki               14
4  O=C(NCCN1CCCC1=O)c1cc(Cc2n[nH]c(=O)c3c2CCCC3)ccc1F            Ki              0.8
5  O=C(NCCc1ccc2c(c1)OCO2)c1cccc(Cc2n[nH]c(=O)c3c2CCCC3)c1            Ki               22

Let us move to another entry and its Ki.
What value of Ki has been recorded for this entry: O=C(c1ccc2ccccc2n1)N1CCCN(C(=O)c2cc(Cc3n[nH]c(=O)c4c3NCCC4)ccc2F)CC1 4.2

---

# TARGET DESC: PARP in C41 cells (Homo sapiens (Human))
# Sequence (P09874 whole entry): as above
# RUN PARAMETERS: Table 3; C41 cells; ratio to comparator EC50
READOUT KIND: Cell EC50 ratio

Examples with answers:
> print(dat)
                                   compound  result
1  O=C(c1cccc(Cc2n[nH]c(=O)c3c2CCCC3)c1)N1CCN(c2ccccn2)CC1 [drawing 32]     1.9
2  CCN(CC)C(=O)C1CCCN(C(=O)c2cc(Cc3n[nH]c(=O)c4c3CCCC4)ccc2F)C1 (centres unmarked) [drawing 51]      17
3  NC(=O)C1CCN(C(=O)c2cc(Cc3n[nH]c(=O)c4c3CCCC4)ccc2F)CC1 [drawing 49]      25
4  O=C(c1cccc(Cc2n[nH]c(=O)c3c2CCCC3)c1)N1CCN(c2ncccn2)CC1 [drawing 26]    0.93
5  NCC(=O)Nc1cccc(Cc2n[nH]c(=O)c3c2CCCC3)c1 [drawing 10]    22.5
6  O=C(c1cc(Cc2n[nH]c(=O)c3c2CCCC3)ccc1F)N1CCN(c2ncccn2)CC1 [drawing 27]     0.3

// lookup Cell EC50 ratio for O=C(c1cc(Cc2n[nH]c(=O)c3c2CCCC3)ccc1F)N1CCN(c2ccccc2)CC1 [drawing 35] 0.9

Field request: Cell EC50 ratio | item: CN(C)CCN(C)C(=O)c1cccc(Cc2n[nH]c(=O)c3c2CCCC3)c1 3

---

# TARGET DESC: Recombinant Human Poly(ADP-Ribose) Polymerase (PARP), PARP-1 (Homo sapiens (Human), UniProt P09874)
# RUN PARAMETERS: read-out: PARP-1 (Ki); Table 1; text calls the values EC50s
Attribute: log10 of Ki
For clarity, the numbers are log10 values of Ki expressed in nM.

Data request, read-out log10 of Ki, for O=C(c1cc(Cc2n[nH]c(=O)c3c2CCCC3)ccc1F)N1CCN(c2cccnc2)CC1 [Example 756] -0.05

Give the measured log10 of Ki of CN(C(=O)c1cc(Cc2n[nH]c(=O)c3c2NCCC3)ccc1F)C1CCN(C(=O)c2ccco2)CC1 [Example 715] . 0.60

Fill in the blank: the reported log10 of Ki of O=CN1CCN(C(=O)c2cccc(Cc3n[nH]c(=O)c4c3CCCC4)c2)CC1 [Example 437] is ____. 0.60

---

# TARGET DESC: Recombinant Human Poly(ADP-Ribose) Polymerase (PARP), PARP-1 (Homo sapiens (Human), UniProt P09874)
# RUN PARAMETERS: read-out: PARP-1 (Ki); Table 1; text calls the values EC50s
The label is label 1 for Ki below 4 nM and label 0 for Ki equal to or exceeding 4 nM.

> print(dat)
                                smiles.code  assigned.class
1  O=C(NCCc1cccc(Cl)c1)c1cccc(Cc2n[nH]c(=O)c3c2CCCC3)c1         label 0
2  O=C(COCc1ccccc1)Nc1cccc(Cc2n[nH]c(=O)c3c2CCCC3)c1         label 0
3  CCN(CC)C(=O)N1CCN(C(=O)c2cc(Cc3n[nH]c(=O)c4c3CCCC4)ccc2F)CC1         label 1
4  O=C(c1ccc(-c2cc(CCc3n[nH]c(=O)c4c3CCCC4)ccc2F)cc1)N1CCOCC1         label 0
5  O=C(Nc1ccc(-c2ccccc2)cc1)c1cccc(Cc2n[nH]c(=O)c3c2CCCC3)c1         label 0

In the record for CN(C)CCN(C)C(=O)c1cc(Cc2n[nH]c(=O)c3c2CCCC3)ccc1F , is Ki less than 4 nM? label 1

Does the reported Ki of COc1ccc(C(=O)C2CCN(C(=O)c3cc(Cc4n[nH]c(=O)c5c4NCCC5)ccc3F)CC2)cc1 stay below 4 nM? label 1

Please check: Ki for COc1ccc(C(=O)CCC(=O)Nc2cccc(Cc3n[nH]c(=O)c4c3CCCC4)c2)cc1 , strictly under 4 nM or not? label 1

---

# TARGET DESC: Recombinant Human Poly(ADP-Ribose) Polymerase (PARP), PARP-1 (Homo sapiens (Human), UniProt P09874)
# RUN PARAMETERS: read-out: PARP-1 (Ki); Table 1; text calls the values EC50s
List of Ki values.
Write down the numeric answer in nM and omit the unit.

Example results:
> print(dat)
                                   compound  numeric.readout
1  O=C(Nc1cccc(Cc2n[nH]c(=O)c3c2CCCC3)c1)C1(c2ccccc2)CC1 [Example 145]               57
2  O=C(NC1CC1)c1cccc(-c2cc(CCc3n[nH]c(=O)c4c3CCCC4)ccc2F)c1 [Example 270]              487
3  O=C(NCCc1ccc(-c2ccccc2)cc1)c1cccc(Cc2n[nH]c(=O)c3c2CCCC3)c1 [Example 393]               70
4  O=c1[nH]nc(Cc2cccc(NS(=O)(=O)c3ccco3)c2)c2c1CCCC2 [Example 118]             2030
5  CS(=O)(=O)c1nccc(Cc2n[nH]c(=O)c3c2CCCC3)n1 [Example 69]               40

Name the recorded Ki for O=C(Nc1cccc(Cc2n[nH]c(=O)c3c2CCCC3)c1)c1ccccc1C(=O)c1ccccc1 [Example 241] . 1450

Could you share which Ki value was measured for COCCC(=O)Nc1cc(Cc2n[nH]c(=O)c3c2CCCC3)ccc1F [Example 456] ? 5

Record request: Ki value, item CCN(CC)CCN(C)C(=O)c1cccc(Cc2n[nH]c(=O)c3c2CCCC3)c1 [Example 419] 16

Quick check: Ki of O=C(Nc1cccc(Cc2n[nH]c(=O)c3c2CCCC3)c1)c1cncs1 [Example 206] ? 18

Which Ki value belongs to O=C(CN1CCCC1=O)Nc1cc(Cc2n[nH]c(=O)c3c2CCCC3)ccc1F [Example 453] ? 14

Item under review: O=C(CCCC(=O)Nc1cccc(Cc2n[nH]c(=O)c3c2CCCC3)c1)Nc1ccccc1 [Example 172] . Reported Ki? 3
